experiment: Plasma pharmacokinetics after multiple ascending doses (MAD), phase 1; type: in vivo, human (healthy adult participants); conditions: human, plasma, iv, 150 mg, Last q6h dose (day 14), 14-day MAD 150 mg q6h × 14, non-Chinese, plasma, n = 10, arithmetic mean ± SD
Where a SMILES comes first, the peptide text is derived from it. Bridges are numbered along the chain shown (N, C = ends). [ ]: non-standard residue; d: D form. The star is where a group is joined. X1 = O=C(c1ccc(Cl)cc1Cl)*; Dab = NCC[C@H](N)C(=O)O; Abu = CC[C@H](N)C(=O)O; Dap = NC[C@H](N)C(=O)O
property_label: Cmax (ng/mL)
Answers are plain numbers, in ng/mL.

Problem: Determine from records and report Cmax for CC[C@@H]1NC(=O)[C@@H](CC(C)C)NC(=O)[C@H](CCN)NC(=O)[C@@H](NC(=O)[C@H](CN)NC(=O)[C@@H](NC(=O)[C@H](CCN)NC(=O)c2ccc(Cl)cc2Cl)[C@@H](C)O)CCNC(=O)[C@H]([C@@H](C)O)NC(=O)[C@H](CCN)NC(=O)[C@H](CCN)NC1=O [BRII-693] (X1-[Dab]T[Dap][Dab][Dab][dL][Abu][Dab][Dab]T; lactam 4-C; N-terminus assumed)
Solution: 12700

====

experiment: Plasma pharmacokinetics after multiple ascending doses (MAD), phase 1; assay type: in vivo, human (healthy adult participants); conditions: human, plasma, iv, 200 mg, First q6h dose (day 3), 7-day MAD 200 mg q6h × 7, 1-h IV infusion, plasma, n = 5, arithmetic mean ± SD
Where a SMILES comes first, the peptide text is derived from it. Bridges are numbered along the chain shown (N, C = ends). [ ]: non-standard residue; d: D form. The star is where a group is joined. X1 = O=C(c1ccc(Cl)cc1Cl)*; Dab = NCC[C@H](N)C(=O)O; Abu = CC[C@H](N)C(=O)O; Dap = NC[C@H](N)C(=O)O
property_label: Cmax (ng/mL)
Numbers only, in ng/mL.

Problem: Determine from records and report Cmax for CC[C@@H]1NC(=O)[C@@H](CC(C)C)NC(=O)[C@H](CCN)NC(=O)[C@@H](NC(=O)[C@H](CN)NC(=O)[C@@H](NC(=O)[C@H](CCN)NC(=O)c2ccc(Cl)cc2Cl)[C@@H](C)O)CCNC(=O)[C@H]([C@@H](C)O)NC(=O)[C@H](CCN)NC(=O)[C@H](CCN)NC1=O [BRII-693] (X1-[Dab]T[Dap][Dab][Dab][dL][Abu][Dab][Dab]T; lactam 4-C; N-terminus assumed)
Solution: 13500

====

experiment: Plasma pharmacokinetics after multiple ascending doses (MAD), phase 1; assay type: in vivo, human (healthy adult participants); conditions: human, plasma, iv, 100 mg, Last q6h dose (day 9), 7-day MAD 100 mg q6h × 7, plasma, n = 6, arithmetic mean ± SD
Where a SMILES comes first, the peptide text is derived from it. Bridges are numbered along the chain shown (N, C = ends). [ ]: non-standard residue; d: D form. The star is where a group is joined. X1 = O=C(c1ccc(Cl)cc1Cl)*; Dab = NCC[C@H](N)C(=O)O; Abu = CC[C@H](N)C(=O)O; Dap = NC[C@H](N)C(=O)O
property_label: Cmax (ng/mL)
Answers are plain numbers, in ng/mL.

Problem: Determine from records and report Cmax for CC[C@@H]1NC(=O)[C@@H](CC(C)C)NC(=O)[C@H](CCN)NC(=O)[C@@H](NC(=O)[C@H](CN)NC(=O)[C@@H](NC(=O)[C@H](CCN)NC(=O)c2ccc(Cl)cc2Cl)[C@@H](C)O)CCNC(=O)[C@H]([C@@H](C)O)NC(=O)[C@H](CCN)NC(=O)[C@H](CCN)NC1=O [BRII-693] (X1-[Dab]T[Dap][Dab][Dab][dL][Abu][Dab][Dab]T; lactam 4-C; N-terminus assumed)
Solution: 8120

====

assay: Plasma pharmacokinetics after single ascending doses (SAD), phase 1; format: in vivo, human (healthy adult participants); details: human, single 1-h IV infusion 400 mg, plasma, apparent terminal half-life, n = 6, arithmetic mean ± SD
Where a SMILES comes first, the peptide text is derived from it. Bridges are numbered along the chain shown (N, C = ends). [ ]: non-standard residue; d: D form. The star is where a group is joined. X1 = O=C(c1ccc(Cl)cc1Cl)*; Dab = NCC[C@H](N)C(=O)O; Abu = CC[C@H](N)C(=O)O; Dap = NC[C@H](N)C(=O)O
property_label: half-life (h)
Numbers only, in h.

Problem: Determine from records and report half-life for CC[C@@H]1NC(=O)[C@@H](CC(C)C)NC(=O)[C@H](CCN)NC(=O)[C@@H](NC(=O)[C@H](CN)NC(=O)[C@@H](NC(=O)[C@H](CCN)NC(=O)c2ccc(Cl)cc2Cl)[C@@H](C)O)CCNC(=O)[C@H]([C@@H](C)O)NC(=O)[C@H](CCN)NC(=O)[C@H](CCN)NC1=O [BRII-693] (X1-[Dab]T[Dap][Dab][Dab][dL][Abu][Dab][Dab]T; lactam 4-C; N-terminus assumed)
Solution: 4.37

====

experiment: Plasma pharmacokinetics after single ascending doses (SAD), phase 1; format: in vivo, human (healthy adult participants); conditions: human, single 1-h IV infusion 300 mg, plasma, apparent terminal half-life, n = 6, arithmetic mean ± SD
Where a SMILES comes first, the peptide text is derived from it. Bridges are numbered along the chain shown (N, C = ends). [ ]: non-standard residue; d: D form. The star is where a group is joined. X1 = O=C(c1ccc(Cl)cc1Cl)*; Dab = NCC[C@H](N)C(=O)O; Abu = CC[C@H](N)C(=O)O; Dap = NC[C@H](N)C(=O)O
property_label: half-life (h)
Answers are plain numbers, in h.

Problem: Determine from records and report half-life for CC[C@@H]1NC(=O)[C@@H](CC(C)C)NC(=O)[C@H](CCN)NC(=O)[C@@H](NC(=O)[C@H](CN)NC(=O)[C@@H](NC(=O)[C@H](CCN)NC(=O)c2ccc(Cl)cc2Cl)[C@@H](C)O)CCNC(=O)[C@H]([C@@H](C)O)NC(=O)[C@H](CCN)NC(=O)[C@H](CCN)NC1=O [BRII-693] (X1-[Dab]T[Dap][Dab][Dab][dL][Abu][Dab][Dab]T; lactam 4-C; N-terminus assumed)
Solution: 4.12

====

assay: Plasma pharmacokinetics after multiple ascending doses (MAD), phase 1; type: in vivo, human (healthy adult participants); conditions: human, plasma, iv, 150 mg, Last q6h dose (day 9), 7-day MAD 150 mg q6h × 7, n = 5, arithmetic mean ± SD; read-out: VZ
Where a SMILES comes first, the peptide text is derived from it. Bridges are numbered along the chain shown (N, C = ends). [ ]: non-standard residue; d: D form. The star is where a group is joined. X1 = O=C(c1ccc(Cl)cc1Cl)*; Dab = NCC[C@H](N)C(=O)O; Abu = CC[C@H](N)C(=O)O; Dap = NC[C@H](N)C(=O)O
property_label: Vd (L)
Give bare numbers, in L.

Problem: Determine from records and report Vd for CC[C@@H]1NC(=O)[C@@H](CC(C)C)NC(=O)[C@H](CCN)NC(=O)[C@@H](NC(=O)[C@H](CN)NC(=O)[C@@H](NC(=O)[C@H](CCN)NC(=O)c2ccc(Cl)cc2Cl)[C@@H](C)O)CCNC(=O)[C@H]([C@@H](C)O)NC(=O)[C@H](CCN)NC(=O)[C@H](CCN)NC1=O [BRII-693] (X1-[Dab]T[Dap][Dab][Dab][dL][Abu][Dab][Dab]T; lactam 4-C; N-terminus assumed)
Solution: 40.9

====

assay: Plasma pharmacokinetics after single ascending doses (SAD), phase 1; type: in vivo, human (healthy adult participants); conditions: human, plasma, single 1-h IV infusion 400 mg, total clearance, n = 6, arithmetic mean ± SD
Where a SMILES comes first, the peptide text is derived from it. Bridges are numbered along the chain shown (N, C = ends). [ ]: non-standard residue; d: D form. The star is where a group is joined. X1 = O=C(c1ccc(Cl)cc1Cl)*; Dab = NCC[C@H](N)C(=O)O; Abu = CC[C@H](N)C(=O)O; Dap = NC[C@H](N)C(=O)O
property_label: clearance (mL/min)
Answers are plain numbers, in mL/min.

Problem: Determine from records and report clearance for CC[C@@H]1NC(=O)[C@@H](CC(C)C)NC(=O)[C@H](CCN)NC(=O)[C@@H](NC(=O)[C@H](CN)NC(=O)[C@@H](NC(=O)[C@H](CCN)NC(=O)c2ccc(Cl)cc2Cl)[C@@H](C)O)CCNC(=O)[C@H]([C@@H](C)O)NC(=O)[C@H](CCN)NC(=O)[C@H](CCN)NC1=O [BRII-693] (X1-[Dab]T[Dap][Dab][Dab][dL][Abu][Dab][Dab]T; lactam 4-C; N-terminus assumed)
Solution: 65.5

Origin of values: paper PMC11784026
